Reference for the values: patent EP2371816A1

# Test system: cerebral oxidative stress induced in mice by doxorubicin
# experiment_description: In vivo assay of cerebral oxidative stress induced in mice by doxorubicin
# condition_notes: healthy animals, 50 mg/kg IP days 0, 1 and 2; mean over all parameters; approximate safety index (D = doxorubicin alone)
The following molecules are listed with their measured Mean % variation relative to the vehicle values.

- molecule: "CC1(C)CC(=O)C=C(NCCN2CCCCC2)C1"
  target_under_test: "cerebral oxidative stress induced in mice by doxorubicin"
  Mean % variation relative to the vehicle / %: -4.3
- molecule: "CC1(C)CC(=O)C=C(N(O)Cc2cccnc2)C1"
  target_under_test: "cerebral oxidative stress induced in mice by doxorubicin"
  Mean % variation relative to the vehicle / %: 0.0
- molecule: "CC1(C)CC(=O)C=C(NN2CCCCC2)C1"
  target_under_test: "cerebral oxidative stress induced in mice by doxorubicin"
  Mean % variation relative to the vehicle / %: -5.4
- molecule: "O=C1C=C(NCCN2CCCCC2)CC(c2ccccc2)C1 (stereo not drawn)"
  target_under_test: "cerebral oxidative stress induced in mice by doxorubicin"
  Mean % variation relative to the vehicle / %: -1.3
- molecule: "COc1cccc2c1C(=O)c1c(O)c3c(c(O)c1C2=O)C[C@@](O)(C(=O)CO)C[C@@H]3O[C@H]1C[C@H](N)[C@H](O)[C@H](C)O1 [D, doxorubicin, reference compound]"
  target_under_test: "cerebral oxidative stress induced in mice by doxorubicin"
  Mean % variation relative to the vehicle / %: -11.4
- molecule: "CC1(C)CC(=O)C=C(N(O)Cc2ccccn2)C1"
  target_under_test: "cerebral oxidative stress induced in mice by doxorubicin"
  Mean % variation relative to the vehicle / %: -0.4
